These entries and their values trace back to ChEMBL document CHEMBL5131414.

target: GABA-A receptor; anion channel (Homo sapiens) (UniProt P14867+P47870+P18507+P28472+P48169+Q99928+Q9UN88+P34903+O00591+O14764+Q8N1C3+P18505+P78334+P47869+P31644+Q16445); assay: Inhibition of GABAA receptor (unknown origin) at 50 uM by radioligand receptor binding assay relative to control; type: protein-complex assay
Could you label it true (1) if measured inhibition is 40% or higher, and false (0) otherwise?

Worked set:
Check this compound for inhibition at or above 40%: CCOC(=O)Cc1ccc(OCC(=O)N2CCN(c3cccc(Cl)c3Cl)CC2)c(OCC)c1
true (1)

Same read-out for CCOC(=O)Cc1ccc(OCC(=O)N2CCN(c3cccc(C(F)(F)F)c3)CC2)c(OCC)c1 ?
true (1)

// repeat for CCCOC(=O)Cc1ccc(OCC(=O)N(CC)CC)c(OC)c1 [PROPANIDID] and report
true (1)

---
// inclusive: inhibition at least 40%? input: CCOc1cc(CC(=O)OC(C)C)ccc1OCC(=O)N1CCN(c2cccc(Cl)c2Cl)CC1
false (0)

Further, for CCCOC(=O)Cc1ccc(OCC(=O)N2CCN(c3cccc(C(F)(F)F)c3)CC2)c(OCC)c1 ?
true (1)

Queued: CCCOC(=O)Cc1ccc(OCC(=O)N2CCN(c3cccc(C)c3C)CC2)c(OCC)c1
true (1)

Same lookup for COc1cc(CC(=O)OCC(F)(F)F)ccc1OCC(=O)N1CCN(c2ccccc2)CC1 , please.
false (0)

Note, next up: CCOc1cc(CC(=O)OC(C)C)ccc1OCC(=O)N1CCN(c2cccc(C(F)(F)F)c2)CC1
true (1)

###

Consider the following compounds and their measured HD50 (median hypnotic dose) readings.
system: Mus musculus; experiment: Anesthetic activity in mouse assessed as concentration required to induce hypnotic effect; format: functional, organism-based
Field format: number, assumed mg/kg, no unit text.

Would you please look over these solved cases?
# HD50 (median hypnotic dose) lookup, item CCOC(=O)Cc1ccc(OCC(=O)N2CCN(c3ccccc3)CC2)c(OCC)c1
30.6

Then this compound: CCOc1cc(CC(=O)OC(C)C)ccc1OCC(=O)N1CCN(c2cccc(C(F)(F)F)c2)CC1
31.6

CCOC(=O)Cc1ccc(OCC(=O)N2CCN(c3cccc(Cl)c3Cl)CC2)c(OCC)c1 , same question.
36.5

More entries:
What does the record list as HD50 (median hypnotic dose) for CCOc1cc(CC(=O)OC(C)C)ccc1OCC(=O)N1CCN(c2ccccc2)CC1 ?
36.8

Same lookup for CCCOC(=O)Cc1ccc(OCC(=O)N2CCN(c3cccc(C(F)(F)F)c3)CC2)c(OCC)c1 , please.
33.6

Moving on to CCOC(=O)Cc1ccc(OCC(=O)N2CCN(c3cccc(C)c3C)CC2)c(OCC)c1
32.2

Another compound: CCOc1cc(CC(=O)OCC(F)(F)F)ccc1OCC(=O)N1CCN(c2ccccc2)CC1
24.8

Also, CCOC(=O)Cc1ccc(OCC(=O)N2CCN(c3cccc(C(F)(F)F)c3)CC2)c(OCC)c1 please.
42.5

Entry CCCOC(=O)Cc1ccc(OCC(=O)N2CCN(c3ccccc3)CC2)c(OC)c1 please
33.2

What about this compound? CCCOC(=O)Cc1ccc(OCC(=O)N2CCN(c3cccc(Cl)c3Cl)CC2)c(OCC)c1
38.6

Repeat for the following compound: COc1cc(CC(=O)OCC(F)(F)F)ccc1OCC(=O)N1CCN(c2ccccc2)CC1
30.8

What do we get for CCOc1cc(CC(=O)OC(C)C)ccc1OCC(=O)N1CCN(c2cccc(C)c2C)CC1 ?
31.4

For CCOc1cc(CC(=O)OCC(F)(F)F)ccc1OCC(=O)N1CCN(c2cccc(C)c2C)CC1 then?
35.6

Ok, now CCCOC(=O)Cc1ccc(OCC(=O)N2CCN(c3ccccc3)CC2)c(OCC)c1
25

Moving on to CCCOC(=O)Cc1ccc(OCC(=O)N2CCN(c3cccc(C)c3C)CC2)c(OCC)c1
42.5

// repeat for CCOc1cc(CC(=O)OC(C)C)ccc1OCC(=O)N1CCN(c2cccc(Cl)c2Cl)CC1 and report
39.5

Also CCCOC(=O)Cc1ccc(OCC(=O)N(CC)CC)c(OCC)c1 , if possible.
17.6

Entry to check: COc1cc(CC(=O)OCC(F)(F)F)ccc1OCC(=O)N1CCN(c2cccc(Cl)c2Cl)CC1
34.5

Request: CCOc1cc(CC(=O)OCC(F)(F)F)ccc1OCC(=O)N1CCN(c2cccc(C(F)(F)F)c2)CC1
31.2
